Provide the reported TGI of each item.
System: OVCAR-4 ovarian
Test: NCI tumour cell line growth inhibition, 48 h

I have this compound here, COc1cc(/C=C2/C(=O)N(C(=O)c3ccccc3O)N=C2C)cc(OC)c1OC , and I need its recorded TGI.
> 100 µM

May I ask what TGI has been recorded for Cc1ccc(S(=O)(=O)C(CC(=O)N2CCCC2)C(=O)c2ccccc2)cc1 (stereo not given) ?
> 100 µM

Sample NC(C(F)(F)F)(C(F)(F)F)P(=O)(Cc1ccccc1)Cc1ccccc1 — what was its TGI?
> 100 µM

Value lookup for TGI; key = COc1cccc(-c2cc(=O)c3ccccc3o2)c1N
> 100 µM

Would you mind telling me what TGI value was observed for CC1=C(C(=O)Nc2ccc([N+](=O)[O-])cc2)C(c2ccc(N(C)C)cc2)C(C(=O)Nc2ccc([N+](=O)[O-])cc2)=C(C)N1 ?
89.5 µM

###

System: HCC-2998 colon
Assay: NCI tumour cell line growth inhibition, 48 h
Can you tell me TGI for the items I'm about to list?

Record request: TGI value, item CCc1c(Oc2ccc(C(C)=O)cc2)c2ccccc2[nH]c1=O
30 µM

Return reported TGI; argument: COc1ccc(C2CC(c3c(O)ccc4ccccc34)=NN2c2ccc([N+](=O)[O-])cc2[N+](=O)[O-])cc1OC (stereo not given)
> 100 µM

Fill blank: measured TGI of the compound O=C(O)c1cc2c(cc1CC(Cc1ccc3c(c1)CCC3)C(=O)O)CCC2 (stereo not given) is ____.
> 100 µM

Could you share which TGI value was measured for CC1(Cl)C(=O)NC(=O)N(C2CC(N=[N+]=[N-])C(CO)O2)C1N=[N+]=[N-] (stereo not given) ?
> 100 µM

What TGI value was documented for this compound, N#C/C(=C/c1ccsc1)C(=O)c1ccccc1 ?
> 100 µM

###

Test system: SF-539 CNS
Experiment: NCI tumour cell line growth inhibition, 48 h
Field: GI50. Provide a value for each of the molecules that follow.

I have this molecule here, N#C/C(=C1C=C/C(=N/O)C(Br)=C/1)c1ccccc1 , and I need its recorded GI50.
1090 nM

Which GI50 value belongs to COc1ccc2c(c1)c(-c1nc(-c3cn(C)c4ncccc34)cs1)cn2CCCN1CCCCC1 ?
1750 nM

Which GI50 value belongs to Cc1nn(CN2CCN(C)CC2)c(=S)n1/N=C/c1cccc2ccccc12 ?
18300 nM

Look up GI50: COc1ccc(C2=NN(C(=O)c3cc(OC)c(OC)c(OC)c3)C(c3ccc(C#N)cc3)C2)cc1OC (stereo unspecified)
882 nM

Given COc1cc(OC)cc(-c2ccc(-c3ccc(C(=N)N)o3)o2)c1 , state its recorded GI50.
1830 nM

Dear colleague, I am looking for the recorded GI50 of the following molecule: CCCCC/C(C=C(C#N)C#N)=C/c1ccccc1
5170 nM

// returns reported GI50 for input COc1cccc(/C=N/NC(=O)c2ccccc2Nc2ccnc(C(F)(F)F)c2)c1O
583 nM

Could you share which GI50 value was measured for COC(=O)c1cc2c3ccccc3[nH]c2c2ncccc12 ?
17400 nM

Look at this molecule and give its reported GI50. COc1cc2c3c(n(C)c(=O)c2cc1OC)-c1cc2c(cc1/C3=C\CCCN1C(=O)c3ccccc3C1=O)OCO2
8990 nM

Any idea what GI50 was measured for C[C@]12CC[C@H](O)CC1=CC[C@@H]1[C@@H]2CC[C@]2(C)C(c3cccnc3)=CC[C@@H]12 ?
8310 nM

Field request: GI50 | item: CSc1cc(N=Nc2nc3ccccc3s2)c2ccccc2c1O
41.3 nM

###

Tested on: OVCAR-8 ovarian
Assay: NCI tumour cell line growth inhibition, 48 h
*1 amine or outer side, *2 acyl side, *3 side chain or, on linkers, in order; H or OH if unused. Where a SMILES comes first, the peptide text is derived from it. Bridges are numbered along the chain shown (N, C = ends). [ ]: non-standard residue; d: D form. The star is where a group is joined. ξ: configuration not given here. X34 = O=C(C(CCCCNO[*:3])N[*:1])[*:2]; Fmoc = O=C(OCC1c2ccccc2-c2ccccc21)*; ξW = NC(Cc1c[nH]c2ccccc12)C(=O)O; ξP = O=C(O)C1CCCN1
Provide the recorded TGI for the entries that follow.

Given COC(=O)CC(C(C(=O)OC)C(=O)OC)N1C(=O)OCC1c1ccccc1 (stereo not given) , state its recorded TGI.
> 100 µM

Bench note: what TGI did COc1ccc(C2=NN(C(=O)c3cc(OC)c(OC)c(OC)c3)C(c3ccc(C#N)cc3)C2)cc1OC (stereo not given) show?
> 42.7 µM

# TGI lookup, item O=C(O)c1c2c(cc3c1CC1(Cc4ccccc4C1)C3)CCC2
> 100 µM

Look up TGI: COc1cccc(-c2cc(=O)c3ccccc3o2)c1N
> 100 µM

Which TGI is reported for this compound? Cc1ccc(-c2c3c([nH]c(=O)c2C#N)-c2cc(F)ccc2OC3)cc1
> 100 µM

# input compound: CCN1c2ccccc2-n2c(C)nnc2-c2c1n[nH]c2-c1ccccc1 ; wanted: its TGI
> 100 µM

Entry NC(=O)CNC(=O)C1CCCN1C(=O)C1CCCCNOC(=O)CC[C@@H](NC(=O)OCC2c3ccccc3-c3ccccc32)C(=O)NC(Cc2c[nH]c3ccccc23)C(=O)N1 (stereo not given in full) (Fmoc-[dE][ξW][X34][ξP]G-NH2; ester 1-3) has what TGI?
> 100 µM

Quick check: TGI of O=C(CCCCCCCCC(=O)NN1C(=O)/C(=C\c2ccc(O)c(O)c2)SC1c1ccc(Cl)cc1)NN1C(=O)/C(=C\c2ccc(O)c(O)c2)SC1c1ccc(Cl)cc1 (stereo not given) ?
34 µM

Fill in the blank: the reported TGI of C[C@@]12[C@H]3CC[C@@H]1[C@H](O)C(=O)N2CC3 is ____.
> 100 µM

# TGI lookup, item CNC(=O)OCc1c(COC(=O)NC)c(-c2ccc(Cl)c(Cl)c2)n2c1SCC2
39.8 µM

What value of TGI has been recorded for this entry: Cc1cc(N(CCOS(C)(=O)=O)CCOS(C)(=O)=O)ccc1C=Nc1ccc(-c2nc(Cc3ccccc3)sc2C)cc1
41.8 µM

Returns the measured TGI for the input compound. Input: CCOP(=O)(OCC)/C(C#N)=C/c1cnc(-c2ccccc2)[nH]1
> 100 µM

Report TGI for OCCCCCNc1c2ccccc2nc2ccccc12 please.
8.72 µM

Suppose we examine the compound Oc1ccc(/C=C/c2cc(O)cc(O)c2)cc1 ; what TGI value has been reported?
> 100 µM

Reported TGI for Cc1nc(-c2ccc([N+](=O)[O-])cc2)cn2c1nc1ccccc12 : what is it?
> 100 µM

Using the record for CCCCN(CCCC)C(=O)C(=O)C(C#N)c1ccc(C)cc1 (stereo not given) , report its TGI.
> 100 µM

Would you mind telling me what TGI value was observed for CC[C@]1(Cc2ccc(OC)c(OC)c2)CN(S(=O)(=O)c2ccc(C)cc2)C[C@@H]1OC(C)=O ?
> 100 µM

Bench note: what TGI did O=C(O)Cn1ccc(=O)c2ccc([N+](=O)[O-])cc21 show?
> 100 µM

// TGI lookup, key: O=C(CN1c2ccccc2Sc2ccccc21)N1CCNCC1
> 100 µM

Entry under review: O=C1C=CC(=Nc2ccc3c(c2)C(Br)c2ccccc2-3)O1 (stereo not given) . Reported TGI?
> 100 µM

###

System: M19-MEL melanoma
Assay: NCI tumour cell line growth inhibition, 48 h
What TGI was measured for each of the following?

// TGI lookup, key: COC(=O)CC(=O)C[P+](c1ccccc1)(c1ccccc1)c1ccccc1
> 218 µM

// query TGI value for entry COc1ccccc1C1C(C(=O)Nc2ccccc2)=C(C)NC(C)=C1C(=O)Nc1ccccc1
> 100 µM

Entry C/C(CCOC1CCCCO1)=C(\C)[Si](C)(C)C (centres undefined) : reported TGI = ?
> 100 µM

Any idea what its TGI is? The compound is COC(=O)C[C@H]1CCC2(OCCO2)[C@]1(C)C(=O)OC
> 100 µM

Give the measured TGI of CCOc1ccc2c(c1)[n+]([O-])c(S(=O)(=O)c1ccc(C)cc1)c(N)[n+]2[O-] .
> 100 µM

Item under review: Cc1cc2c(cc1C)[n+](=O)c(C(=O)CC(=O)C(=O)Nc1c(C(C)C)cccc1C(C)C)c(C)n2[O-] . Reported TGI?
> 100 µM

// query TGI value for entry O=C1C(Cl)=C(N2CCN(C3=C(Cl)C(=O)c4ccccc4C3=O)CC2)C(=O)c2ccccc21
2.91 µM

Reported TGI for CCCCCCCCCCCCCC(=O)OC1CC(=O)OC1CO (centres undefined) : what is it?
> 100 µM

Please look up its TGI: OCc1ccc2[n+](c1)CCC1c3ccccc3NC21 (centres undefined)
> 300 µM

Sample COC(=O)C1=C(C(=O)OC)C2C=CC1C1C(Cl)=C(Cl)C21 (centres undefined) — what was its TGI?
> 100 µM

Query (compound): CCN(CC)c1c(C(=O)/C=C/c2ccccc2)c(-c2ccccc2)nn(C)c1=O ; field requested: TGI
> 100 µM

Looking for the measured TGI of COc1ccc2cc1Oc1ccc(cc1)CC1c3cc(c(OC)cc3CCN1C)Oc1c3c(cc4c1C(C2)N(C)CC4)OCO3 (centres undefined) , can you help?
12.9 µM

For the compound shown here, O=C(O)CC/C(=N\Nc1nsc2ccccc12)c1ccccc1 , give the reported TGI.
> 100 µM

I'd like to know its TGI. The compound in question is CCCCCCCCCCCC(=O)CC(=O)c1c(O)cccc1O
34.2 µM
